Listed here: items and their measured ELISA NSP.
Molecular target: T1, SARS-CoV-2 C14S,C23S,C73S NSP9 (triSer-Nsp9) (SARS-CoV-2, UniProt P0DTC1 4141-4253)
T1 construct: also called NSP (dissolved in ammonium acetate); INS (dissolved in DMSO/PBS)
T1 chain: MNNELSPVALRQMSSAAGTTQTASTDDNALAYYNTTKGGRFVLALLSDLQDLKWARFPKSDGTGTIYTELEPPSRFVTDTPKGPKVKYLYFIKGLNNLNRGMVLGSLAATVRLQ
Experiment: ELISA, periplasmic extract; Nsp9 in ammonium acetate (NSP) coated
The response must contain the number and no unit.

3NSP52 (VHH) VHH: QVQLQESGGGLVQPEGSLRLSCAASGLTFDSYAIGWFRQAPGKEREFVAASIWSGDSGHYTGSVKGRFTISRDNAKNTVDLQMNSLKPEDTAVYYCAASASFLHSANYHMRAKWGYWGQGTQVTVSS	2.91
3INS39 (VHH) VHH: QVQLQESGGGLVQAGGSLRVSCEVSGIMFGINTMGWYRQAPGKQRELVAHITSSGSTNYADSVKGRFTISRDNAKKTVYLQMNSLKPEDTAVYYCNVVAGWGPPPGYWGQGTQVTVSS	4.07
2INS61 (VHH) VHH: QVQLQESGGGLVQAGGSLRLSCAASGSIFSINTMGWYRQAPGKQRELVAAITSGGSTNYADSVKGRFTISRDNAKNTVHLQMNSLKPEDTAVYYCNVVEGWGPPVGYWGQGTQVTVSS	5.36

Consider the binder 2INS27 (VHH) VHH: QVQLQESGGGLVQAGGSLRLSCATSGSIFSSAVMGWYRQAPGNERELVALIGSSDTTDYSNSVKGRFTISRDNAKNTAYLRMNSLKPEDTAVYYCTAVKYGLGGFVYWGQGTQVTVSS . State its measured ELISA NSP.
2.77

Consider the binder 2NSP90 (VHH) VHH: QVQLQESGGGLVQTGDSLRLSCAVSGRTFSTYSVGWFRQAPGKEREFVALRWSGGTTYYADSVVGRFTVSRDNAKNTVYLEMNSLKPEDTAVYYCAADRGSGSYSPTYRWDYWGQGTQVTVSS . State its measured ELISA NSP.
4.78

Consider the binder 2NSP23 (VHH) VHH: QVQLQESGGGLVQPGGSLRLSCAASGLAFSMYTMGWFRQAPGKEREFVAMIISSGDSTDYADSVKGRFTISRDNGKNTVYLQMDSLKPEDTAVYYCAAPKFRYYFSTSPGDFDSWGQGTQVTVSS . State its measured ELISA NSP.
4.28
